Exercise: for every item that follows, state its recorded viability, T/C.
system: 439559-082-T-J2-PDC spheroid viability; experiment: Anticancer human tumor 439559-082-T-J2-PDC patient-derived colon adenocarcinoma cell line growth inhibition [POLQ]; settings: second compound 0.1 µM; first compound 0.0316 µM; stronger effect = lower value; spheroids with HUVEC and MSC
API: value field is a number in %; no unit string.

Fill in: viability, T/C on 439559-082-T-J2-PDC spheroid viability, entry Nc1ccn(C2OC(CO)C(O)C2(F)F)c(=O)n1 (stereo not given) + Nc1ccc(C#CCN(C(=O)Cc2ncc(C(F)(F)F)cc2C(F)(F)F)c2ccc(F)cc2)nn1
89.5

Please look at C=CC(=O)N1CCN(c2nc(=O)n(-c3c(C)ccnc3C(C)C)c3nc(-c4c(O)cccc4F)c(F)cc23)C(C)C1 (stereo not given) + Nc1ccc(C#CCN(C(=O)Cc2ncc(C(F)(F)F)cc2C(F)(F)F)c2ccc(F)cc2)nn1 and tell me its recorded viability, T/C on 439559-082-T-J2-PDC spheroid viability.
109

Print 439559-082-T-J2-PDC spheroid viability viability, T/C for COc1cccc(OCCCN)c1-c1cc(Nc2cnc(C#N)cn2)n[nH]1 + COC1C(OC(N)=O)C(O)C(Oc2ccc3c(O)c(NC(=O)c4ccc(O)c(CC=C(C)C)c4)c(=O)oc3c2C)OC1(C)C .
76.4

Please tell me the measured viability, T/C for CCc1cc2c(N3CCc4c(cc(Cn5ccnc5)cc4-c4cn(C)nc4C(F)(F)F)C3=O)ccnc2c(OC)n1 + Cc1cccc(N(C)C(=O)C2C(O)CCN2c2nc(C)cc(C(F)(F)F)c2C#N)c1 ; system: 439559-082-T-J2-PDC spheroid viability.
126

GET viability, T/C where system = 439559-082-T-J2-PDC spheroid viability and item = COc1cccc2c1C(=O)c1c(O)c3c(c(O)c1C2=O)CC(O)(C(=O)CO)CC3OC1CC(N)C(O)C(C)O1 (stereo not given) + COC1C(OC(N)=O)C(O)C(Oc2ccc3c(O)c(NC(=O)c4ccc(O)c(CC=C(C)C)c4)c(=O)oc3c2C)OC1(C)C
105

---

test system: 439559-082-T-J2-PDC spheroid viability; assay: Anticancer human tumor 439559-082-T-J2-PDC cell line growth inhibition [POLQ]; conditions: second compound 3.16 µM; first compound 0.316 µM; stronger effect = lower value; spheroids with HUVEC and MSC;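 further: spheroids exposed to compounds for seven days before readout; 100% = DMSO vehicle control viability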
Assign labels as follows, please: met for viability, T/C below 90%; not met for viability, T/C equal to or exceeding 90%.

In plain terms, does CCc1c2c(nc3ccc(O)cc13)-c1cc3c(c(=O)n1C2)COC(=O)[C@]3(O)CC + Nc1ccc(C#CCN(C(=O)Cc2ncc(C(F)(F)F)cc2C(F)(F)F)c2ccc(F)cc2)nn1 come in under 90% for viability, T/C?
met

Determine if CC1COCCN1c1cc(C2(S(C)(=N)=O)CC2)nc(-c2ccnc3[nH]ccc23)n1 (stereo not drawn) + Nc1ccc(C#CCN(C(=O)Cc2ncc(C(F)(F)F)cc2C(F)(F)F)c2ccc(F)cc2)nn1 shows viability, T/C strictly lower than 90%.
not met

Strictly below 90% in viability, T/C? O=C(Nc1ccc(O)c(NS(=O)(=O)c2ccc(F)cc2)c1)c1ccc(-c2ccccc2)cc1 + Cc1cccc(N(C)C(=O)C2C(O)CCN2c2nc(C)cc(C(F)(F)F)c2C#N)c1
met

Given O=c1[nH]cc(F)c(=O)[nH]1 + Nc1ccc(C#CCN(C(=O)Cc2ncc(C(F)(F)F)cc2C(F)(F)F)c2ccc(F)cc2)nn1 , is recorded viability, T/C strictly lower than 90%?
met

Determine whether this molecule shows viability, T/C lower than 90% (ties excluded): CCc1c2c(nc3ccc(O)cc13)-c1cc3c(c(=O)n1C2)COC(=O)[C@]3(O)CC + Cc1cccc(N(C)C(=O)C2C(O)CCN2c2nc(C)cc(C(F)(F)F)c2C#N)c1
met

Quick check: viability, T/C of C=CC(=O)N1CCN(c2nc(=O)n(-c3c(C)ccnc3C(C)C)c3nc(-c4c(O)cccc4F)c(F)cc23)C(C)C1 (stereo not drawn) + Nc1ccc(C#CCN(C(=O)Cc2ncc(C(F)(F)F)cc2C(F)(F)F)c2ccc(F)cc2)nn1 under 90%?
not met
